Every entry's value here was drawn from the supplement of paper PMC10567573.

Assign protein stability index to each entry below.
B1: ZNF511 (parent)
chain: FDALDDYEHHYHTLHGNVCSFCKR

# Variants of: B1
# Protocol text: protein stability index of a GFP-peptide fusion (GPS, HEK-293T) (PSI 1-6); higher = more stable;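 also: lentivirally expressed fusions sorted by FACS into six bins by GFP to DsRed ratio, PSI derived from sequencing read proportions per bin multiplied by bin number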
# Test parameters: c terminus: a fixed tail appended

# protein stability index of Y11T = 4.62

# protein stability index of A3W = 2.87

# protein stability index of R24M = 3.6

# protein stability index of D6G = 3.69

# protein stability index of D2I = 3.62

# protein stability index of C19R = 2.75

# protein stability index of Y7G = 4.16

# protein stability index of T13A = 3.82

# protein stability index of D5Y = 3.1

# protein stability index of F1H = 4.46

# protein stability index of S20F = 3.67

# protein stability index of S20H = 3.56

# protein stability index of H10I = 2.53

# protein stability index of N17R = 3.9

# protein stability index of Y11E = 4.55

# protein stability index of H9K = 3.43

# protein stability index of F21I = 4.22

# protein stability index of G16N = 3.72

# protein stability index of D2K = 3.78

# protein stability index of H12D = 4.41

# protein stability index of D2Q = 2.93

# protein stability index of F1L = 4.31

# protein stability index of H9Q = 3.43

# protein stability index of G16P = 3.46

# protein stability index of E8A = 3.66

# protein stability index of S20C = 3.4

# protein stability index of A3N = 3.63

# protein stability index of L4E = 4.41

# protein stability index of H9F = 3.03

# protein stability index of H10M = 2.65

# protein stability index of T13K = 3.4

# protein stability index of S20Y = 4.29

# protein stability index of A3S = 3.77

# protein stability index of D5I = 3.45

# protein stability index of H9M = 3.44

# protein stability index of H15Y = 3.23

# protein stability index of H10F = 2.92

# protein stability index of V18I = 3.53

# protein stability index of E8L = 2.74

# protein stability index of A3T = 3.56

# protein stability index of H12E = 2.95

# protein stability index of C22T = 2.59

# protein stability index of T13D = 3.91

# protein stability index of H12C = 4.18

# protein stability index of C22M = 2.85

# protein stability index of T13E = 4.27
